- PROCEDURE DETAILS: qHTS RealTime-Glo MT Cell Viability Assay in HEK293 cells - 40 hour (AID 1224874); also: % is scaled to controls: 0 for no effect and ±100 for the full control effect; nearly all actives have a fitted effect of over 50% in size
- TEST SETTINGS: RealTime-Glo luminescence; stronger effect = lower value
Inconclusive results are not listed.
READOUT LABEL: max response (%)
Expressed in %, but write only the number.

What value of measured max response is listed for CC1(N)CCC(C(C)(C)N)CC1 (stereo unspecified) ?
-1.45

Please answer likewise for c1ccccc1
-3.11

Please answer likewise for CCOC(=O)CC(CC(=O)OCC)(OC(C)=O)C(=O)OCC
-6.27

Please answer likewise for CC(Cl)COP(=O)(OCC(C)Cl)OCC(C)Cl (stereo unspecified)
-0.188

Please answer likewise for O=C(COCCOCCOCC(=O)Nc1c(I)cc(I)c(C(=O)O)c1I)Nc1c(I)cc(I)c(C(=O)O)c1I
3.14

Please answer likewise for NS(=O)(=O)c1cc2c(cc1Cl)NC(C(Cl)Cl)NS2(=O)=O (stereo unspecified)
2.25

Please answer likewise for CC(=O)OC(C)(C)Cc1ccccc1
6.53

Please answer likewise for CCN(CCO)c1cccc(C)c1
6.86

Please answer likewise for CCc1nccnc1C
6.93

Please answer likewise for CN(C)CCCNCCC#N
6.65

Please answer likewise for NC(=O)NC(=O)Cc1ccccc1
3.75

Please answer likewise for C[CH2][Ge]([Cl])([CH2]C)[CH2]C
1.99

Please answer likewise for CC(C)COC(=O)COc1ccc(Cl)cc1Cl
6.46

Please answer likewise for O=C(O)c1ccccc1C(=O)OCc1ccccc1
3.76

Please answer likewise for CC(C)(C)c1ccc(C=O)cc1
0.97

Please answer likewise for O=C(O)c1ccccc1C(=O)Nc1ccc(S(=O)(=O)Nc2nccs2)cc1
-1.33

Please answer likewise for CCCCOC(=O)C(=O)OCCCC
0.934

Please answer likewise for O=C1CC[C@H](C(=O)N2CCCCC2)N1
-2.81

Please answer likewise for Nc1cc(Cl)cc(S(=O)(=O)O)c1O
-4.63

Please answer likewise for Nc1cc(C(=O)O)ccc1Cl
6.48

Please answer likewise for CCS(=O)(=O)CCn1c([N+](=O)[O-])cnc1C
-0.732

Please answer likewise for O=S(=O)(O)CCO
-10.5

Please answer likewise for NS(=O)(=O)c1ccc(Cl)c(S(N)(=O)=O)c1
13.4

Please answer likewise for O=C(O)CCNC(=O)c1ccccc1
-0.231

Please answer likewise for Nc1ccc(S(=O)(=O)NC(=O)c2ccccc2)cc1
2.96

Please answer likewise for CCCCC(CC)COC(=O)c1ccccc1 (stereo unspecified)
3.3

Please answer likewise for CC(=O)c1ccc2c(c1)CCCC2
-1.61

Please answer likewise for CC(=O)N1CCN(c2ccc(O)cc2)CC1
7.56

Please answer likewise for CN[C@@H]1[C@@H](O)[C@@H](O[C@@H]2[C@H](O)[C@H](O[C@H]3OC(CN)=CC[C@H]3N)[C@@H](N)C[C@H]2N)OCC1(C)O (stereo partly specified)
1.03

Please answer likewise for CC(=O)OC(C)c1ccccc1 (stereo unspecified)
0.769

Please answer likewise for FC(F)(F)c1ccc(Cl)cc1Cl
6.78

Please answer likewise for CC(C)CCO
3.55

Please answer likewise for CC(=O)OCC(=O)[C@@]1(O)[C@H](OC(C)=O)C[C@H]2[C@@H]3CCC4=CC(=O)C=C[C@]4(C)[C@@]3(F)[C@@H](O)C[C@@]21C
3.94

Please answer likewise for Cc1nc([N+](=O)[O-])cn1-c1ccc([N+](=O)[O-])cc1
4.25

Please answer likewise for CCCCC(C)C(=O)O (stereo unspecified)
-5.74

Please answer likewise for OC(CCN1CCCCC1)(c1ccccc1)c1ccccc1
-16.7

Please answer likewise for CNC(=O)C(c1ccccc1)c1ccccc1
0.511

Please answer likewise for CC(=O)OCCCc1ccccc1
4.03

Please answer likewise for CCCCCCCCCCCCCCCCCCN(C)C
0.677

Please answer likewise for C=CCOc1cc(Cl)ccc1C(=O)NCCN(CC)CC
-13.3

Please answer likewise for C=CCCCCCCCCCCC
6.19

Please answer likewise for OC[C@@H](O)[C@H](O)[C@@H](O)[C@@H](O)CO
0.901

Please answer likewise for Cn1c(=O)c2c(ncn2CC2OCCO2)n(C)c1=O
7.08

Please answer likewise for CCOC(=O)CCc1ccccc1
3.62

Please answer likewise for Cc1cc(C)cc([N+](=O)[O-])c1
-13.7

Please answer likewise for O=C(O)c1ccc(OCCN2CCCCC2)cc1
5.16

Please answer likewise for CCCC(C)CC (stereo unspecified)
1.42

Please answer likewise for CC(C)(CO)[C@@H](O)C(=O)NCCCO
4

Please answer likewise for C=COCCOCCOC=C
-1.05

Please answer likewise for NS(=O)(=O)c1ccccc1OC(F)(F)F
6.21

Please answer likewise for CCOC(=O)C(C)(C)C
-0.816

Please answer likewise for CCC(C)(CCC(C)C)C(=O)[O-].CCC(C)(CCC(C)C)C(=O)[O-].[Zn+2] (stereo unspecified)
0.868

Please answer likewise for CC(C)C(=O)c1ccccc1
-17.8

Please answer likewise for F[Si-2](F)(F)(F)(F)F
-1.11

Please answer likewise for CC(C)COC(=O)CC(C(=O)OCC(C)C)S(=O)(=O)O (stereo unspecified)
-3.15

Please answer likewise for Nc1c(NC/C=C\COc2cc(CN3CCCCC3)ccn2)c(=O)c1=O
-0.39

====

- MEASURED ON: Cytochrome P450 3A4 (Homo sapiens) (UniProt P08684)
- Sequence (P08684 whole entry, looked up): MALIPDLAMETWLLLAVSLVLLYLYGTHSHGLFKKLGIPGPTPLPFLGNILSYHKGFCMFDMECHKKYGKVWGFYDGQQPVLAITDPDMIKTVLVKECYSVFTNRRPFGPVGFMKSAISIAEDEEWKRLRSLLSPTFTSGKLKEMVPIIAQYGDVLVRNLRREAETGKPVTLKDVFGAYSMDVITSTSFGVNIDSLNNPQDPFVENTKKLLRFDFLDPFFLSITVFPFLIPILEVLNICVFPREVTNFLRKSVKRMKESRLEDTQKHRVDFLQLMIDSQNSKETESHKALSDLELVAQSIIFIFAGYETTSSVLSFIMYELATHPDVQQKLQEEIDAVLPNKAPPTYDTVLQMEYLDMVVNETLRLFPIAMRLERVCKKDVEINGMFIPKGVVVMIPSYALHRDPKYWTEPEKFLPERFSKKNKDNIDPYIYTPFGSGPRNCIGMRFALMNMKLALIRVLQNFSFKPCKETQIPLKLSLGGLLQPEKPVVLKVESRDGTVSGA
- PROCEDURE DETAILS: Cytochrome P450 Family 3 Subfamily A Member 4 (CYP3A4) small molecule antagonists: luciferase reporter qHTS assay (AID 1671201); also: % is scaled to controls: 0 for no effect and ±100 for the full control effect; nearly all actives have a fitted effect of over 50% in size
- TEST SETTINGS: P450-Glo CYP3A4 enzyme, luciferin luminescence, 1 h; series mostly up to 115 µM
Records with an inconclusive call do not appear. Active and inactive are the calls of the source. The call rests on the fitted dose curve; in most records, active means well fitted inhibition curve with a large enough effect in the repeat runs; inconclusive means weak or mixed curves; inactive means no such curve, though single readings can be large or run the other way.
READOUT LABEL: activity change, negative = inhibition

As a guide, the following entries are already answered.
1) CCOc1ccc(NC(=O)OC(C)C)cc1OCC :: inactive
2) CC(=O)OC(C)(C)Cc1ccccc1 :: inactive
3) Cc1nc2ccccc2c(=O)o1 :: inactive
4) CCOC(=O)CCc1ccccc1 :: inactive
5) C[N+](C)(C)CC(O)CCl (stereo not drawn) :: inactive

What reported activity change, negative = inhibition corresponds to CC(=O)c1ccc(OCC(=O)N2CCCCC2)cc1 on Cytochrome P450 3A4 (Homo sapiens) (UniProt P08684)?
inactive

Please answer likewise for O=S1(=O)CCCC1
inactive

====

- MEASURED ON: Retinoic acid receptor RXR-alpha (Homo sapiens) (UniProt P19793)
- Sequence (P19793 whole entry, looked up): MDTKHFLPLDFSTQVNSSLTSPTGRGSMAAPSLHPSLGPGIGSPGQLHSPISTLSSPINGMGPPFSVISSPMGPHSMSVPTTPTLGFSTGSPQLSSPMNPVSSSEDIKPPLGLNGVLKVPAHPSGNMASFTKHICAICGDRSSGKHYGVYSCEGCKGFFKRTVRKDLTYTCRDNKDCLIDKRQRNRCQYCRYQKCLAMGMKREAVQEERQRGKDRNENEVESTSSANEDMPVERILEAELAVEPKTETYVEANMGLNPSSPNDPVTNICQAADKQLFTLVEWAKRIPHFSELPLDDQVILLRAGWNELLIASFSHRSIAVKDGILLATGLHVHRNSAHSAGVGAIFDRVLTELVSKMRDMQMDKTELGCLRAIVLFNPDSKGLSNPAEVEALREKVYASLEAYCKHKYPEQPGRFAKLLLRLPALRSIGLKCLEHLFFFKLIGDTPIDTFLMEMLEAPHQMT
- PROCEDURE DETAILS: qHTS assay to identify small molecule agonists of the RXR signaling pathway (AID 1159527); also: % is scaled to controls: 0 for no effect and ±100 for the full control effect; nearly all actives have a fitted effect of over 35% in size
- TEST SETTINGS: HEK293T RXRa-UAS-bla, beta-lactamase ratio, 16 h; series mostly up to 76.8 µM
Records with an inconclusive call do not appear. Active and inactive are the calls of the source. Calls follow the shape of the full dose curve.
READOUT LABEL: activation

As a guide, the following entries are already answered.
1) CCC(C)N (stereo unspecified) :: inactive
2) COc1ccc(/C=N/NC(=O)c2ccncc2)cc1OC :: inactive
3) CCNC(=O)/C=C/c1cccc(Br)c1 :: inactive
4) O=S1(=O)CCCC1 :: inactive
5) Nc1ccnc(=O)[nH]1 :: inactive
6) CN(C1CCCCC1)S(=O)(=O)c1ccccc1N :: inactive

What value of measured activation is listed for C=CCOc1cc(Cl)ccc1C(=O)NCCN(CC)CC ?
inactive

Please answer likewise for Cc1cc(C)cc([N+](=O)[O-])c1
inactive

====

- PROCEDURE DETAILS: qHTS assay for small molecule activators of the heat shock response signaling pathway - cell viability counter screen (AID 743209); also: % is scaled to controls: 0 for no effect and ±100 for the full control effect; nearly all actives have a fitted effect of over 50% in size
- TEST SETTINGS: HSE-bla HeLa viability, CellTiter-Glo luminescence, 5 h; series mostly up to 62.6 µM
Inconclusive results are not listed. Activity calls are given as the source filed them. The call rests on the fitted dose curve; in most records, active means well fitted cell-killing curve with a large enough effect in the repeat runs; inconclusive means weak or mixed curves, or effect the other way; inactive means no such curve, though single readings can be large or run the other way.
READOUT LABEL: activity change, negative = cytotoxicity

As a guide, the following entries are already answered.
1) CC(=O)OC(C)(C)Cc1ccccc1 :: inactive
2) Cc1ccc(S(=O)(=O)NC(=O)NC2CCCCCCC2)cc1 :: inactive
3) NCCc1ccn[nH]1 :: inactive
4) CCC(=O)OCCC(C)CCC=C(C)C (stereo unspecified) :: inactive
5) CO[Si](CCCCl)(OC)OC :: inactive

What value of measured activity change, negative = cytotoxicity is listed for O=S(=O)(O)SSS(=O)(=O)O ?
inactive

Please answer likewise for CCOC(=O)CC#N
inactive

Please answer likewise for CCC(=O)c1ccc(O)cc1
inactive

Please answer likewise for COc1ccc(/C=N/NC(=O)c2ccncc2)cc1OC
inactive

Please answer likewise for O=S(=O)(O)c1cc(O)ccc1O
inactive

Please answer likewise for C=C(C)C(=O)OCCCCCCOC(=O)C(=C)C
inactive

Please answer likewise for Nc1ccc(S(=O)(=O)Nc2ccccn2)cc1
inactive
